Target: Sodium-dependent dopamine transporter (Homo sapiens)
Sequence (Q01959 whole entry): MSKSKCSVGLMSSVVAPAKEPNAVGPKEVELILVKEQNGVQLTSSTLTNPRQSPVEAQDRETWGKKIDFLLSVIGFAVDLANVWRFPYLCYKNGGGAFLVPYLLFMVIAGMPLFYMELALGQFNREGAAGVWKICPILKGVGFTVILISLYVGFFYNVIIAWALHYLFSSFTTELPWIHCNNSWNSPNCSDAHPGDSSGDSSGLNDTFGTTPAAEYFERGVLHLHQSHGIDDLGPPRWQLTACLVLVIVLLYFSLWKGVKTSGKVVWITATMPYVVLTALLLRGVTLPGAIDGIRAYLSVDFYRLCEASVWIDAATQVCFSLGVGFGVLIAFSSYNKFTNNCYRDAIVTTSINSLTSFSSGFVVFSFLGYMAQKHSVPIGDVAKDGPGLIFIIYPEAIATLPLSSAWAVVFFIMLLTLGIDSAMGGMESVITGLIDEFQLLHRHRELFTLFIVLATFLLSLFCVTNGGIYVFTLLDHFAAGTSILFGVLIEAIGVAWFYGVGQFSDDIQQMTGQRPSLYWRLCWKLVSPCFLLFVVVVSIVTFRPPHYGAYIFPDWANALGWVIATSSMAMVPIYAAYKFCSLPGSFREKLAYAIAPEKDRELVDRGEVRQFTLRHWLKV
Experiment: Inhibition of [3H]mazindol binding to recombinant human DAT expressed in HEK293 cell membranes preincubated for 10 mins followed by radioligand addition measured after 90 mins by micro beta scintillation counting analysis
parameter measured: pKi
One number for each entry, as −log10 of the molar value.

Q: Answer briefly: pKi recorded on Sodium-dependent dopamine transporter (Homo sapiens) for COC(=O)[C@H]1[C@@H](c2ccc([125I])cc2)CC2CC[C@H]1N2C
Result: 7.96

====

Target: Sodium-dependent dopamine transporter (Homo sapiens)
Experiment: Enhancing of [3H]WIN35,428 binding to recombinant human DAT expressed in HEK293 cell membranes at 10 uM pre-incubated for 10 mins before radioligand addition and measured 90 mins after radioligand addition by micro beta scintillation counting analysis relative to control
Active and inactive are the calls of the source. No cut-off for these calls is given here.
parameter measured: Activity

# count of solved cases: 4
[[record]]
compound_smiles = "CCOC(=O)[C@@]12C[C@@H]1[C@@H](n1cnc3c(NC)nc(C#Cc4ccc(Br)s4)nc31)[C@H](O)[C@@H]2O"
parameter_measured = "Activity"
value_reported = "430%"

[[record]]
compound_smiles = "CNc1nc(C#Cc2ccc(Cl)s2)nc2c1ncn2[C@H]1[C@H](O)[C@H](O)[C@]2(C(=O)OC)C[C@H]12"
parameter_measured = "Activity"
value_reported = "352%"

[[record]]
compound_smiles = "CCOC(=O)[C@@]12C[C@@H]1[C@@H](n1cnc3c(NC)nc(C#Cc4ccc(Cl)s4)cc31)[C@H](O)[C@@H]2O"
parameter_measured = "Activity"
value_reported = "354%"

[[record]]
compound_smiles = "CNc1nc(C#Cc2ccc(Cl)s2)nc2c1ncn2[C@H]1[C@H](O)[C@H](O)[C@]2(C(=O)OCCCc3ccccc3)C[C@H]12"
parameter_measured = "Activity"
value_reported = "inactive"


Now, please, on to the next molecule.
Q: Give me measured Activity, please, for this molecule: CNc1nc(C#Cc2ccc(Cl)s2)nc2c1ncn2[C@H]1[C@H](O)[C@H](O)[C@]2(C(=O)OC(C)C)C[C@H]12
Result: inactive

====

Below are compounds with their pKi as measured on Adenosine receptor A3 (Homo sapiens).
Sequence (P0DMS8 whole entry): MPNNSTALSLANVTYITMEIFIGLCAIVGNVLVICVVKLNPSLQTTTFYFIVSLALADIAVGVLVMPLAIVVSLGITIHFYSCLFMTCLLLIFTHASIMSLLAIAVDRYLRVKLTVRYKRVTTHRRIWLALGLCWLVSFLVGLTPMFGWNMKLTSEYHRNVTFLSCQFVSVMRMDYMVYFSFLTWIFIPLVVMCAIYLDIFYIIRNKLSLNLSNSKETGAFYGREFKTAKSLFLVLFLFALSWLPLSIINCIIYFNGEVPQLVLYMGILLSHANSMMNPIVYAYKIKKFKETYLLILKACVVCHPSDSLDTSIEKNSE
Numbers only, as −log10 of the molar value.

# count of solved cases: 2
[[record]]
compound_smiles = "CNc1nc(C#Cc2ccc(Cl)s2)nc2c1ncn2[C@@H]1O[C@H](C(=O)OC)[C@@H](O)[C@H]1O"
measured_on = "Adenosine receptor A3 (Homo sapiens)"
value_reported = 7.94

[[record]]
compound_smiles = "CNc1nc(C#Cc2ccc(Br)s2)nc2c1ncn2[C@H]1[C@H](O)[C@H](O)[C@]2(C(=O)OC)C[C@H]12"
measured_on = "Adenosine receptor A3 (Homo sapiens)"
value_reported = 8.07


Hey, quick one: what's pKi for each of these?
1. CCCNc1nc(C#Cc2ccc(Cl)s2)nc2c1ncn2[C@@H]1O[C@H](C(=O)NC)[C@@H](O)[C@H]1O
2. CCOC(=O)[C@@]12C[C@@H]1[C@@H](n1cnc3c(NC)nc(C#Cc4ccc(Cl)s4)nc31)[C@H](O)[C@@H]2O

Result:
[8.20, 7.84]
